- Tested on: Oryza sativa (ORYSA)
- TEST NAME: B1 pre-emergence herbicidal activity
- Type: in vivo
- MEASUREMENT CONDITIONS: Rate 1000 g/ha; evaluated after 13 days
Hi there, I'd appreciate the recorded Control of ORYSA after pre-emergence application (damage score 0-5) for every entry that follows.
Numbers only.

Sample answers from the record:
- MOLECULE: "Cc1nn(-c2cncnc2)cc1N(C)C(=O)NC(C)(C)C [Compound A16]"
  OBSERVED RESULT: 1
- MOLECULE: "Cc1nn(-c2cncnc2)cc1N(C)C1=NCCCCO1 [Compound A53]"
  OBSERVED RESULT: 0
- MOLECULE: "Cc1nn(-c2cncnc2)cc1N(C)C(=O)NC1CCCCC1 [Compound A44]"
  OBSERVED RESULT: 1
- MOLECULE: "C=CCN(C(=O)OC(C)(C)C)c1cn(-c2cncc(F)c2)nc1C [Compound A54]"
  OBSERVED RESULT: 0
- MOLECULE: "CCN(C(=O)OC(C)(C)C)c1cn(-c2cncc(F)c2)nc1C(F)(F)F [Compound A55]"
  OBSERVED RESULT: 0

Dear colleague, could you send me Control of ORYSA after pre-emergence application (damage score 0-5) for each of the items below? Thanks.
1. CN(C(=O)OC(C)(C)C)c1cn(-c2cncnc2)nc1C(F)(F)F [Compound A6]
2. COC(=O)N(C)c1cn(-c2cncc(F)c2)nc1C(F)(F)F [Compound A27]
3. CN(C(=O)Oc1ccccc1)c1cn(-c2cncc(F)c2)nc1C(F)(F)F [Compound A46]
4. Cc1nn(-c2cncc(F)c2)cc1N(C)C(=O)OC(C)(C)C [Compound A10]
5. Cc1nn(-c2cncnc2)cc1N(C)C(=O)Nc1ccc(C#N)cc1 [Compound A52]
6. CC(C)(C)OC(=O)Nc1cn(-c2cncnc2)nc1C(F)(F)F [Compound A4]
7. CN(C(=O)OC(C)(C)C)c1cc(-c2cncnc2)nn1C [Compound A14]

2
0
0
1
0
1
0

* * *

Hi there, I'd appreciate the recorded Control of SETFA after pre-emergence application (damage score 0-5) for every entry that follows.
- System: Setaria faberi (SETFA)
- TEST NAME: B1a pre-emergence herbicidal activity
- Assay type: in vivo
- MEASUREMENT CONDITIONS: Rate 1000 g/ha; evaluated after 13 days

Sample answers from the record:
- COMPOUND STRUCTURE: "Cc1nn(-c2cncnc2)cc1N(C)C(=O)Nc1c(C)noc1C"
  OBSERVED RESULT: 0
- COMPOUND STRUCTURE: "CC(C)(C)OC(=O)Nc1cn(-c2cccnc2)nc1Cl"
  OBSERVED RESULT: 0
- COMPOUND STRUCTURE: "CC(C)OC(=O)Nc1cc(-c2cncnc2)nn1C(F)F"
  OBSERVED RESULT: 2

Dear colleague, could you send me Control of SETFA after pre-emergence application (damage score 0-5) for each of the items below? Thanks.
1. CCOC(=O)C(=O)N(C)c1cn(-c2cncnc2)nc1C(F)(F)F
2. CC(C)OC(=O)N(C)c1cc(-c2cncnc2)nn1C(F)F
3. CN(C(=O)OC(C)(C)C)c1cn(-c2cccnc2)nc1Cl

1. 0
2. 3
3. 4

* * *

- System: Triticum aestivium (TRZAW)
- TEST NAME: B1 pre-emergence herbicidal activity; further: key: 5=total damage to plant; 0=no damage to plant
- Assay type: in vivo
- MEASUREMENT CONDITIONS: Rate 1000 g/ha; evaluated after 13 days
QUANTITY KIND: Control of TRZAW after pre-emergence application (damage score 0-5)
Give bare numbers.

- COMPOUND STRUCTURE: "COC(=O)N(C)c1cn(-c2cncc(F)c2)nc1C(F)(F)F"
  OBSERVED RESULT: 0
- COMPOUND STRUCTURE: "CN(C(=O)OC(C)(C)C)c1cc(-c2cncnc2)nn1C"
  OBSERVED RESULT: 1
- COMPOUND STRUCTURE: "CC(C)(C)OC(=O)Nc1cn(-c2cncnc2)nc1C(F)(F)F"
  OBSERVED RESULT: 0
- COMPOUND STRUCTURE: "CN(C(=O)Oc1ccccc1)c1cn(-c2cncc(F)c2)nc1C(F)(F)F"
  OBSERVED RESULT: 0
- COMPOUND STRUCTURE: "CCN(C(=O)OC(C)(C)C)c1cn(-c2cncnc2)nc1C(F)(F)F"
  OBSERVED RESULT: 0

Dear colleague, could you send me Control of TRZAW after pre-emergence application (damage score 0-5) for each of the items below? Thanks.
1. CN(C(=O)NC(C)(C)C)c1cn(-c2cncc(F)c2)nc1C(F)(F)F
2. CN(C(=O)N(C)C(C)(C)C)c1cn(-c2cncnc2)nc1C(F)(F)F
3. Cc1nn(-c2cncnc2)cc1N(C)C1=NCCCCO1
4. CN(C(=O)OC(C)(C)C)c1c(Cl)c(-c2cccnc2)nn1C
5. Cc1nn(-c2cncnc2)cc1N(C)C(=O)OC(C)(C)C
6. CN(C(=O)OC(C)(C)C)c1cc(-c2cccnc2)nn1C

0
0
0
0
4
0

Dear colleague, could you send me Control of TRZAW after pre-emergence application (damage score 0-5) for each of the items below? Thanks.
1. Cc1nn(-c2cncnc2)cc1N(C)C(=O)Nc1ccc(C#N)cc1
2. Cc1nn(-c2cncnc2)cc1N(C)C(=O)NC(C)(C)C
3. C=CCN(C(=O)OC(C)(C)C)c1cn(-c2cncc(F)c2)nc1C
4. Cc1nn(-c2cncc(F)c2)cc1N(C)C(=O)OC(C)(C)C
5. CCOC(=O)N(C)c1cn(-c2cncc(F)c2)nc1C(F)(F)F
6. Cc1nn(-c2cncnc2)cc1N(C)C(=O)NC1CCCCC1
7. CN(C(=O)OC(C)(C)C)c1cn(-c2cncc(F)c2)nc1C(F)(F)F

[0, 1, 0, 0, 0, 1, 1]

Dear colleague, could you send me Control of TRZAW after pre-emergence application (damage score 0-5) for each of the items below? Thanks.
1. CCN(C(=O)OC(C)(C)C)c1cn(-c2cncc(F)c2)nc1C(F)(F)F
2. CN(C(=O)OC(C)(C)C)c1cn(-c2cncnc2)nc1C(F)(F)F

[0, 0]
